- ASSAYED SYSTEM: T1, recombinant Plasmodium falciparum circumsporozoite protein (CSP) (Plasmodium falciparum, UniProt Q7K740 21-375)
- T1 construct: also called recombinant CSP
- T1 sequence (Q7K740 21-375 limits assumed): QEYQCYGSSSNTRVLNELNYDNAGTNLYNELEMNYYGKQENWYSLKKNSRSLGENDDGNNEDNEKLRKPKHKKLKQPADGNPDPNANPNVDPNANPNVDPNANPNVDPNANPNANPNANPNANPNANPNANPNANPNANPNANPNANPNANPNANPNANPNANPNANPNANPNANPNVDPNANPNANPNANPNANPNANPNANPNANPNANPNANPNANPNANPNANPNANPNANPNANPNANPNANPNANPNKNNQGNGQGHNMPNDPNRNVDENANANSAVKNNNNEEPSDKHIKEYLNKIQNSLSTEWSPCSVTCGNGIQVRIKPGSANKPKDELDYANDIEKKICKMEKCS
- TEST DETAILS: binding affinity column of the in vivo table (SPR, CSP)
For each entry below, report its Kd value.
Express your answer as a number followed by its unit.

Illustrative cases are given below, each with its answer.
AB001428 (antibody, V domains shown) VH: QVQLVESGGGVVQPGRSLRLSCVVSGFTFSSYGMHWVRQAPGKGLEWVAIIWYDGSKKYYADSVKGRFTISRDNSKNTLYLQMNSLRAEDTAVYYCARPGDSSGSHGEAFDIWGQGTMVTVSS VL: DIQMTQSPSTLSASVGDRVTITCRPSQSISNWLAWYQQKPGKAPKLLIYKASSLESGVPSRFSGSGSGTEFTLTISGLQPDDFATYYCQQYNTYWTFGQGTKVEIK    1180 pM
AB-000327 (antibody, V domains shown) VH: QVQLVESGGGVVQPGRSLRLSCAASRFTFKNYGMHWVRQGPGKGLEWVAVIWYDGSQEYYVDSVRGRFTISRDNSKDTLYLQMNSLRAEDTAVYYCVRDGRYRTSHQTSTGFFDLWGQGTLVTVSS VL: QSMLTQPPSVSGAPGQRVTISCTGSSSNIGADYDVHWYQQLPGTAPKLLIYGNNNRPSGVPDRFSGSKSGTSASLAITGLQPEDEAEYYCQSYDSSLSGSFVFGTGTKVTVL    467 pM
AB001387 (antibody, V domains shown) VH: QVQLVESGGGVVQPGRSLRLSCAASGFTFSNYGMHWVRQAPGKGLEWVAVIWYDGSNKFYADSVKGRFTSSRDNSKNTLYLQMNSLRAEDTAVYYCARDGRFLTTVTTAYFDYWGQGTLVTVSS VL: QSVLTQPPSVSGAPGQRVTISCTGSSSNIGAGYDVHWYQQLPGTAPKLLIYGNSNRPSGVPDRFSGSKSGTSASLAITGLQAEDEADYYCQSYDSSLSALVFGGGTKLTVL    676 pM

Quick one: give me Kd for each item below, same order please.
1. AB-000356 LS (antibody, V domains shown) VH: QVQLVESGGGVVQPGRSLRLSCAASGFTFRNFGMHWVRQTPGKGLEWVAVIWHDGSNKFYADSVEGRFTISRDNSKNMIYLQMNSLRVEDTAIYYCARDSLFYDHDNSGYYGYWGQGTLVTVSS VL: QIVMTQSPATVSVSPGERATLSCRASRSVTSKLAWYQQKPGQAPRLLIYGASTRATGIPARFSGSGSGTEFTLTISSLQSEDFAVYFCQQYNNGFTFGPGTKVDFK
2. AB-000373 (antibody, V domains shown) VH: QVLLVESGGGVVQPGGSLRLSCTASGFTFKNYGMHWVRQAPGKGLEWVAVIWFDGSNEFYADSVEGRFTISRDNSKNTLYLQTNSLRAEDTAVYYCARSYTSSWLGFDFWGQGTLVTVSS VL: DAVMTQTPLSLSVTPGQPASISCKSGQSLLHSDGKTYLYWYLQKPGQSPQLLIYEVSSRFSGVPDRFSGSGSGTDFTLKISRVEAEDVGVYYCMRGIHPRTFGQGTKVEIK

["2460 pM", "59.2 pM"]
